Answer each item with its documented growth.
Test system: DU-145 prostate
Test: NCI-60 one-dose screen, 48 h (100 = growth as untreated, 0 = no growth, -100 = all killed)
Details: 10 µM unless noted
Protocol: Cells are grown in 96 well plates and exposed to the test compound for 48 hours. Compounds are tested at a single concentration, which is 10^-5 M for most compounds. The reported endpoint is percent growth (GI% or GIPRCNT), where numbers from 0 - 100% represent growth inhibition, and numbers from -100% - 0 represent cell death. For example, a value of 40 represents 60% growth inhibition. A value of 0 means no net growth occurred over the course of the experiment. […]
About 83,000 compounds went through this panel and 20% of them were active in at least one assay; those are over-represented in the sample as a whole.
Lab book: enter the figure in %, no units written.

Q: For the compound shown here, CCCCSCC(=O)c1ccccc1 , give the reported growth.
A: 103

Q: For the compound shown here, Cc1cc(F)ccc1S(=O)(=O)Nc1cc(-c2c(O)ccc3ccccc23)c(O)c2ccccc12 , give the reported growth.
A: 41.7

Q: For the compound shown here, N#C/C(=C\c1ccc(-c2ccc(Cl)cc2)o1)c1ccc(Cl)cc1 , give the reported growth.
A: 82.1

Q: For the compound shown here, O=C1NC(=C(Cl)Cl)/C(=N/S(=O)(=O)NCCc2c[nH]c3ccccc23)N1 , give the reported growth.
A: 92.3

Q: For the compound shown here, Cc1c2cc[nH]c(=O)c2c(C)c2c1[nH]c1ccc(OC(=O)c3ccccc3)cc12 , give the reported growth.
A: 34

Q: For the compound shown here, CCOC(=O)CSc1nc2sc3c(c2c(=O)n1-c1ccc([N+](=O)[O-])cc1)CCCCC3 , give the reported growth.
A: 63.5

Q: For the compound shown here, C/C(=C(\c1ccc(OCCN2CCCCCC2)cc1)c1ccc(OC(=O)Cc2ccccc2)cc1)c1ccc(Cl)cc1 , give the reported growth.
A: 62.3

Q: For the compound shown here, COC(=O)C1=C(C)NC(C)=C(C(=O)OCC(C)C)C1c1ccccc1[N+](=O)[O-] (stereo not given) , give the reported growth.
A: 50.6

Q: For the compound shown here, COc1ccc(C(c2cc(OC)c(OC)c(OC)c2)N2CCCC2)cc1 (stereo not given) , give the reported growth.
A: 103

Q: For the compound shown here, O=C1/C(=C/c2ccc(C(F)(F)F)cc2)COc2ccc(O)c(O)c21 , give the reported growth.
A: 16.1

----------
Test system: NCI/ADR-RES ovarian
Assay: NCI-60 one-dose screen, 48 h
Conditions: 10 µM unless noted
The panel holds about 83,000 compounds, 20% with a hit somewhere; the sample as a whole holds those more often. Calls of active or inactive are those of the source. Rule for the calls: active = growth percent below 10; inactive = the rest.
Pick one: active, inactive

Q: Short answer needed: outcome of this test for Cc1nc2sc(C(=O)Nc3cccc(Cl)c3)c(N)c2cc1C(O)c1ccccc1 (stereo not given) ?
A: active

Q: Short answer needed: outcome of this test for O=C1/C=C/[C@@H](O)[C@@H]2C[C@@H](O)C[C@H]2/C=C/CCC[C@H](CCOCc2ccccc2)O1 ?
A: active

Q: Short answer needed: outcome of this test for Cc1cscc(C)c1=S ?
A: inactive

Q: Short answer needed: outcome of this test for COc1cc(C(=O)C(=O)c2cc(OC)c(O)c(OC)c2)cc(OC)c1O ?
A: inactive

Q: Short answer needed: outcome of this test for COC(=O)C1=Nc2ccc(F)cc2/C1=C\c1sc(Nc2ccc(O)cc2)nc1O ?
A: inactive

Q: Short answer needed: outcome of this test for CCNC(=O)Oc1ccc(/C(=C(/C)Cc2ccc(OC)cc2)c2ccc(OCCN3CCCC3)cc2)cc1 ?
A: inactive

Q: Short answer needed: outcome of this test for N#Cc1c(-c2cccc([N+](=O)[O-])c2)cc(-c2ccc(Nc3nc(Nc4ccc(F)cc4)nc(Nc4ccc(F)cc4)n3)cc2)nc1N ?
A: inactive

Q: Short answer needed: outcome of this test for NS(=O)(=O)c1ccc(N/C=C/C(=O)c2cc3ccccc3oc2=O)cc1 ?
A: inactive

Q: Short answer needed: outcome of this test for CCCCCSB(SCCCCC)c1ccccc1 ?
A: inactive

Q: Short answer needed: outcome of this test for COc1ccc(Cc2nnc(Nc3nc4ccccc4s3)s2)cc1 ?
A: inactive

Q: Short answer needed: outcome of this test for CCOC(=O)c1c2c(n3ccccc13)C(=O)c1ncccc1C2=O ?
A: active

Q: Short answer needed: outcome of this test for N#C/C(=C\c1ccc(Br)cc1)c1cc2ccccc2[nH]1 ?
A: inactive

Q: Short answer needed: outcome of this test for COc1ccc(/C=C/C(=O)c2ccc(NC(=O)CSc3nnc(-c4cc(-c5ccccc5)nc5ccccc45)n3-c3ccccc3)cc2)cc1 ?
A: inactive

Q: Short answer needed: outcome of this test for C=CCN=C(N)SCCCCCCSC(N)=NCC=C ?
A: inactive

Q: Short answer needed: outcome of this test for CCOC(=O)C1=C(c2ccccc2)N=c2s/c(=C/c3ccc(Br)cc3)c(=O)n2C1c1ccc(O)cc1 (stereo not given) ?
A: inactive

Q: Short answer needed: outcome of this test for CC(C)c1ccc(C(=O)Nc2sc3cc(O)ccc3c2C#N)cc1 ?
A: inactive

Q: Short answer needed: outcome of this test for CC(C)c1ccc(-n2c(=S)[nH]c3sc4c(c3c2=O)CCC(=O)C4)cc1 ?
A: inactive

Q: Short answer needed: outcome of this test for CCOC(=O)c1c(C)c2c(n1C)CSc1cc(S(=O)(=O)c3ccccc3)c(=O)[nH]c1-2 ?
A: inactive

Q: Short answer needed: outcome of this test for O=C(CCCCNC(=O)c1cc(=O)c(O)co1)Nc1ccccc1 ?
A: inactive

Q: Short answer needed: outcome of this test for O=C1CCCc2nc3sc4c(=O)n(-c5ccccc5Cl)nnc4c3cc21 ?
A: inactive
